# Experimental Details: Bioavailability after administration by inhalation as powder inhalant
# Test Settings: in vivo, inhaled or intranasal; administered by inhalation as powder inhalant; based on the fine content of the formulation (FPD, fine particle dose, USP 24 Suppl. 2000)
Result Type: bioavailability

- Molecule: "NCCCC[C@H](NC(=O)[C@@H](Cc1cc(Br)c(O)c(Br)c1)NC(=O)N1CCC(N2Cc3ccccc3NC2=O)CC1)C(=O)N1CCN(c2ccncc2)CC1 [A]"
  Result Type: "bioavailability"
  Value: "~60%"
